The binders listed here are annotated with their pKd.
Molecular target: T1, IL1RAPL1 (Mus musculus (Mouse), UniProt P59823)
T1 chain: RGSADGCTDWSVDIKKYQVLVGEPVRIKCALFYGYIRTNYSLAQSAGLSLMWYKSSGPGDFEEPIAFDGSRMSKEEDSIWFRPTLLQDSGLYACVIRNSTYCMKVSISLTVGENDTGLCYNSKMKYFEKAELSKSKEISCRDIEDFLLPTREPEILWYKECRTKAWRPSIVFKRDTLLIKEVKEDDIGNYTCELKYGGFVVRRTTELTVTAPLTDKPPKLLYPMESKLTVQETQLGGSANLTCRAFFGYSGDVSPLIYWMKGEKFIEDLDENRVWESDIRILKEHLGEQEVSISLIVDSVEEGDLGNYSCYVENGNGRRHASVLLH
Experiment: SPR equilibrium 25C, PTPRD Ig1-Fn1 analyte
pKd: −log10 of the molar value.

binder: PTPRD_A0B0 (protein) ETPPRFTRTPVDQTGVSGGVASFICQATGDPRPKIVWNKKGKKVSNQRFEVIEFDDGSGSVLRIQPLRTPRDEAIYECVASNNVGEISVSTRLTVLREDQIPRGFPTIDMGPQLKVVERTRTATMLCAASGNPDPEITWFKDFLPVDTSNNNGRIKQLRSGALQIEQSEESDQGKYECVATNSAGTRYSAPANLYVRVRRVPPRFSIPPTNHEIMPGGSVNITCVAVGSPMPYVKWMLGAEDLTPEDDMPIGRNVLELNDVRQSANYTCVAMSTLGVIEAIAQITVKA
pKd: < 5.40

binder: PTPRD_A9B0 (protein) ETPPRFTRTPVDQTGVSGGVASFICQATGDPRPKIVWNKKGKKVSNQRFEVIEFDDGSGSVLRIQPLRTPRDEAIYECVASNNVGEISVSTRLTVLREDQIPRGFPTIDMGPQLKVVERTRTATMLCAASGNPDPEITWFKDFLPVDTSNNNGRIKQLRSESIGGTPIRGALQIEQSEESDQGKYECVATNSAGTRYSAPANLYVRVRRVPPRFSIPPTNHEIMPGGSVNITCVAVGSPMPYVKWMLGAEDLTPEDDMPIGRNVLELNDVRQSANYTCVAMSTLGVIEAIAQITVKA
pKd: 6.10

binder: PTPRD_A6B0 (protein) ETPPRFTRTPVDQTGVSGGVASFICQATGDPRPKIVWNKKGKKVSNQRFEVIEFDDGSGSVLRIQPLRTPRDEAIYECVASNNVGEISVSTRLTVLREDQIPRGFPTIDMGPQLKVVERTRTATMLCAASGNPDPEITWFKDFLPVDTSNNNGRIKQLRSGGTPIRGALQIEQSEESDQGKYECVATNSAGTRYSAPANLYVRVRRVPPRFSIPPTNHEIMPGGSVNITCVAVGSPMPYVKWMLGAEDLTPEDDMPIGRNVLELNDVRQSANYTCVAMSTLGVIEAIAQITVKA
pKd: < 5.40

binder: PTPRD_A3B0 (protein) ETPPRFTRTPVDQTGVSGGVASFICQATGDPRPKIVWNKKGKKVSNQRFEVIEFDDGSGSVLRIQPLRTPRDEAIYECVASNNVGEISVSTRLTVLREDQIPRGFPTIDMGPQLKVVERTRTATMLCAASGNPDPEITWFKDFLPVDTSNNNGRIKQLRSESIGALQIEQSEESDQGKYECVATNSAGTRYSAPANLYVRVRRVPPRFSIPPTNHEIMPGGSVNITCVAVGSPMPYVKWMLGAEDLTPEDDMPIGRNVLELNDVRQSANYTCVAMSTLGVIEAIAQITVKA
pKd: < 5.40

binder: PTPRD_A3B1 (protein) ETPPRFTRTPVDQTGVSGGVASFICQATGDPRPKIVWNKKGKKVSNQRFEVIEFDDGSGSVLRIQPLRTPRDEAIYECVASNNVGEISVSTRLTVLREDQIPRGFPTIDMGPQLKVVERTRTATMLCAASGNPDPEITWFKDFLPVDTSNNNGRIKQLRSESIGALQIEQSEESDQGKYECVATNSAGTRYSAPANLYVRELREVRRVPPRFSIPPTNHEIMPGGSVNITCVAVGSPMPYVKWMLGAEDLTPEDDMPIGRNVLELNDVRQSANYTCVAMSTLGVIEAIAQITVKA
pKd: < 5.40
